Target: T1, EsCas13d, nuclease-dead (Eubacterium siraeum, UniProt B0MS50, R295A;H300A;R849A;H854A)
T1 sequence: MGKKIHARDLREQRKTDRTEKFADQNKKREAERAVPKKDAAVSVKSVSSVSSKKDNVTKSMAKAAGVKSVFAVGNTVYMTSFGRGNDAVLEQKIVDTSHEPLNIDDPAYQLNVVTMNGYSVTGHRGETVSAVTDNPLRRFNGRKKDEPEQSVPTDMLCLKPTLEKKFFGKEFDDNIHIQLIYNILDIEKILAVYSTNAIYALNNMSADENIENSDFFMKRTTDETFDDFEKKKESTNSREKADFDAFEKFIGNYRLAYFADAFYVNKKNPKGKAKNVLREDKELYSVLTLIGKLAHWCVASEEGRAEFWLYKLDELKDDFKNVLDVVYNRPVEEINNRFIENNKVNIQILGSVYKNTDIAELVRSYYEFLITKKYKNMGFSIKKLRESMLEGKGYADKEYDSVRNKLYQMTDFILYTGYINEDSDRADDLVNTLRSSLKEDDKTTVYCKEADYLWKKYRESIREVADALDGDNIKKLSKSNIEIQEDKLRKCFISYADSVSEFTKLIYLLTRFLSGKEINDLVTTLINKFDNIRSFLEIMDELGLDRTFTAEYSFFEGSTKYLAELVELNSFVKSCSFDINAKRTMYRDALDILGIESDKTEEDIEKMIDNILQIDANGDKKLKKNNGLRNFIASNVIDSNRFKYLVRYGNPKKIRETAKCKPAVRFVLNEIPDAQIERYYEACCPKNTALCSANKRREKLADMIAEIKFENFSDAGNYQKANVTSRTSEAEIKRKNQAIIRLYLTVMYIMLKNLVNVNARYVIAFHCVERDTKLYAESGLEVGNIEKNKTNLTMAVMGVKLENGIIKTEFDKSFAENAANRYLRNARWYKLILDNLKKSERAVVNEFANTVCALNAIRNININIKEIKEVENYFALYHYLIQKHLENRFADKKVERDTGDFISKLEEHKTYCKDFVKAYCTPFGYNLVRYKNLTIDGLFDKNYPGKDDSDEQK
Assay: crRNA (strand 1, pre-loaded); Mg2+; 40 mM Tris-HCl pH 7.5, 150 mM NaCl, 6 mM MgCl2, 1 mM DTT, 0.1% Tween-20, 0.2 mg/ml BSA; 25 C; 10 min per concentration, then washed
Details: tags: His6-TwinStrep-SUMO cleaved; N-terminal SNAP kept (SNAP-Surface 488); label: 3' end held by stalled T7 RNA polymerase
metric: Kd (nM)
Respond with the bare value in nM.

### Prompt Recorded Kd of target 2 MT 5'PFS UCA 3'PFS AGA (mixed) RNA 1: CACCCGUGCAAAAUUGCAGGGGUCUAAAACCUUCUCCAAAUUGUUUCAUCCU RNA 2: GGGAAUGGAUCCACAUCUACGAAUUCUCAAGGAUGAAACAAUUUGGAGAAGAGAAGAUCGGAAGAGCACACGU , please.
### Response 7.6

We next turn to a different binder, shown below.
### Prompt Recorded Kd of target 1 MT 5'PFS UGG 3'PFS CCG (mixed) RNA 1: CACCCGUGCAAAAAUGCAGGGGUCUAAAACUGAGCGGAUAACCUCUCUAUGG RNA 2: GGGAAUGGAUCCACAUCUACGAAUUCUGGCCAUAGAGAGGUUAUCCGCUCACCGAGAUCGGAAGAGCACACGU , please.
### Response 47
